Collected DC50 values appear next to each entry.
Molecular target: UniProt:Q06187
Sequence (Q06187 whole entry): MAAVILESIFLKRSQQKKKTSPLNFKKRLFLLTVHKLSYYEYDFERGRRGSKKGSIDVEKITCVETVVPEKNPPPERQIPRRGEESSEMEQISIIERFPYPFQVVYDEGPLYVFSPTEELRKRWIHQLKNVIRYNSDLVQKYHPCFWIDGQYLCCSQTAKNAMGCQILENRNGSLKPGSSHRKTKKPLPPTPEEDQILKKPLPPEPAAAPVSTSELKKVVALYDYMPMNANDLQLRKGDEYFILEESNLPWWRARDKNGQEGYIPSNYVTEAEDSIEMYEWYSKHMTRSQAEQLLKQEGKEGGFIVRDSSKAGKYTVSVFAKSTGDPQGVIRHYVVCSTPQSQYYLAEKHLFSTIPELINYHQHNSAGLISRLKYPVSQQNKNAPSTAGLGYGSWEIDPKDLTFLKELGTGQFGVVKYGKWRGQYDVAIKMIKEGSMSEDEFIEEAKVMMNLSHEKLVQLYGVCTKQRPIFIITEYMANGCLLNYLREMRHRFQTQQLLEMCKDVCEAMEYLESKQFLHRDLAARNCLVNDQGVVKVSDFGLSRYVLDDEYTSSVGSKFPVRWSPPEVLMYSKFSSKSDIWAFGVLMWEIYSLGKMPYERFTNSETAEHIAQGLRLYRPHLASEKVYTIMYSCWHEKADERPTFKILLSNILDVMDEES
Assay: BTK degradation, DC50 and Dmax of Table 1 (cell line not given)
Assay type: cell-based
Design: endogenous in cells
Conditions: concentration giving 50% reduction of BTK expression level

Here are 6 compounds together with their reported answers.
compound | DC50
Nc1ncnc2c1c(-c1ccc(Oc3ccccc3)cc1)nn2C1CCN(CC2CCN(C(=O)N3CCC(C4CCN(c5ccc6c(c5)CN(C5CCC(=O)NC5=O)C6=O)CC4)CC3)CC2)CC1 (centres unmarked) | > 50 nM
Nc1ncnc2c1c(-c1ccc(Oc3ccccc3)cc1)nn2[C@@H]1CCCN(C2CCN(C(=O)N3CCC(CCN4CCN(c5ccc6c(c5)C(=O)N(C5CCC(=O)NC5=O)C6=O)CC4)CC3)CC2)C1 (some centres unmarked) | 10 to 50 nM
Nc1ncnc2c1c(-c1ccc(Oc3ccccc3)cc1)nn2C1CCN(CCOCCOCCC2CCN(c3ccc4c(c3)C(=O)N(C3CCC(=O)NC3=O)C4=O)CC2)CC1 (centres unmarked) | < 10 nM
Nc1ncnc2c1c(-c1ccc(Oc3ccccc3)cc1)nn2[C@@H]1CCCN(C(=O)N2CCC(CC3CCN(c4ccc5c(c4)C(=O)N(C4CCC(=O)NC4=O)C5=O)CC3)CC2)C1 (some centres unmarked) | 10 to 50 nM
Nc1ncnc2c1c(-c1ccc(Oc3ccccc3)cc1)nn2C1CCN(C(=O)N2CCC(CCN3CCN(c4ccc5c(c4)C(=O)N(C4CCC(=O)NC4=O)C5=O)CC3)CC2)CC1 (centres unmarked) | 10 to 50 nM
Nc1ncnc2c1c(-c1ccc(Oc3ccccc3)cc1)nn2[C@@H]1CCCN(C2CCN(C(=O)N3CCN(CCC4CCN(c5ccc6c(c5)CN(C5CCC(=O)NC5=O)C6=O)CC4)CC3)CC2)C1 (some centres unmarked) | > 50 nM

Request: State the recorded DC50 for this entry: Nc1ncnc2c1c(-c1ccc(Oc3ccccc3)cc1)nn2C1CCN(C(=O)N2CCC(N3CCN(c4ccc5c(c4)C(=O)N(C4CCC(=O)NC4=O)C5=O)CC3)CC2)CC1 (centres unmarked)
Response: > 50 nM

Request: State the recorded DC50 for this entry: Nc1ncnc2c1c(-c1ccc(Oc3ccccc3)cc1)nn2C1CCCN(CCOCCN2CCN(c3ccc4c(c3)C(=O)N(C3CCC(=O)NC3=O)C4=O)CC2)C1 (centres unmarked)
Response: 10 to 50 nM

Request: State the recorded DC50 for this entry: Nc1ncnc2c1c(-c1ccc(Oc3ccccc3)cc1)nn2[C@@H]1CCCN(C2CCN(C(=O)N3CCN(CCN4CCN(c5ccc6c(c5)C(=O)N(C5CCC(=O)NC5=O)C6=O)CC4)CC3)CC2)C1 (some centres unmarked)
Response: 10 to 50 nM

Request: State the recorded DC50 for this entry: Nc1ncnc2c1c(-c1ccc(Oc3ccccc3)cc1)nn2C1CCN(C(=O)N2CCN(CCCN3CCN(c4ccc5c(c4)CN(C4CCC(=O)NC4=O)C5=O)CC3)CC2)CC1 (centres unmarked)
Response: > 50 nM

Request: State the recorded DC50 for this entry: Nc1ncnc2c1c(-c1ccc(Oc3ccccc3)cc1)nn2[C@@H]1CCCN(C(=O)N2CCC(CCCN3CCN(c4ccc5c(c4)CN(C4CCC(=O)NC4=O)C5=O)CC3)CC2)C1 (some centres unmarked)
Response: > 50 nM

Request: State the recorded DC50 for this entry: Nc1ncnc2c1c(-c1ccc(Oc3ccccc3)cc1)nn2C1CCN(C(=O)N2CCC(CC3CCN(c4ccc5c(c4)C(=O)N(C4CCC(=O)NC4=O)C5=O)CC3)CC2)CC1 (centres unmarked)
Response: 10 to 50 nM

Request: State the recorded DC50 for this entry: Nc1ncnc2c1c(-c1ccc(Oc3ccccc3)cc1)nn2[C@@H]1CCCN(C(=O)N2CCN(CCCN3CCN(c4ccc5c(c4)CN(C4CCC(=O)NC4=O)C5=O)CC3)CC2)C1 (some centres unmarked)
Response: > 50 nM

Request: State the recorded DC50 for this entry: Nc1ncnc2c1c(-c1ccc(Oc3ccccc3)cc1)nn2[C@@H]1CCCN(C2CCN(C(=O)N3CCN(CCN4CCN(c5ccc6c(c5)CN(C5CCC(=O)NC5=O)C6=O)CC4)CC3)CC2)C1 (some centres unmarked)
Response: > 50 nM

Request: State the recorded DC50 for this entry: Nc1ncnc2c1c(-c1ccc(Oc3ccccc3)cc1)nn2[C@@H]1CCCN(C2CCN(C(=O)N3CCC(c4ccc5c(c4)CN(C4CCC(=O)NC4=O)C5=O)CC3)CC2)C1 (some centres unmarked)
Response: > 50 nM

Request: State the recorded DC50 for this entry: Nc1ncnc2c1c(-c1ccc(Oc3ccccc3)cc1)nn2C1CCN(CCOCCOCCN2CCC(c3ccc4c(c3)CN(C3CCC(=O)NC3=O)C4=O)CC2)CC1 (centres unmarked)
Response: < 10 nM

Request: State the recorded DC50 for this entry: Nc1ncnc2c1c(-c1ccc(Oc3ccccc3)cc1)nn2[C@@H]1CCCN(C(=O)N2CCC(CCN3CCC(c4ccc5c(c4)CN(C4CCC(=O)NC4=O)C5=O)CC3)CC2)C1 (some centres unmarked)
Response: 10 to 50 nM

Request: State the recorded DC50 for this entry: Nc1ncnc2c1c(-c1ccc(Oc3ccccc3)cc1)nn2[C@@H]1CCCN(CC2CCN(CCCC3CCN(c4ccc5c(c4)CN(C4CCC(=O)NC4=O)C5=O)CC3)CC2)C1 (some centres unmarked)
Response: 10 to 50 nM

Request: State the recorded DC50 for this entry: Nc1ncnc2c1c(-c1ccc(Oc3ccccc3)cc1)nn2C1CCN(C(=O)N2CCC(N3CCN(c4ccc5c(c4)CN(C4CCC(=O)NC4=O)C5=O)CC3)CC2)CC1 (centres unmarked)
Response: 10 to 50 nM

Request: State the recorded DC50 for this entry: Nc1ncnc2c1c(-c1ccc(Oc3ccccc3)cc1)nn2C1CCN(CC2CCN(C(=O)N3CCC(C4CCN(c5ccc6c(c5)C(=O)N(C5CCC(=O)NC5=O)C6=O)CC4)CC3)CC2)CC1 (centres unmarked)
Response: > 50 nM
